assay: Ratio of drug level in brain to blood in rat complete Freund's adjuvant-induced inflammatory pain model at 10 mg/kg, po after 1 hr; assay type: ADME, organism-based; design: dose 10 mg/kg, route oral; details: read-out: BBR
property_label: Kp at 1 h

In [3]: df
Out[3]:
                    structure_smiles_string  quantitative_readout
0  Cc1cc(C(=O)NN2CCOCC2)nn1Cc1cc(Cl)cc2cc(-c3ccccc3)oc12                   1.7
1  Cc1cc(C(=O)NC(C)(C)C)nn1Cc1cc(Cl)cc2cc(-c3ccccc3)oc12                   0.3

---

assay: Volume of distribution at steady state in rat at 1 mg/kg, iv; format: ADME, organism-based; set-up: dose 1 mg/kg, route intravenous; details: in vivo, read-out: Vdss
property_label: Vd (L/kg)

                    structure_smiles_string  quantitative_readout
0  Cc1cc(C(=O)NC(C)(C)C)nn1Cc1cc(Cl)cc2cc(-c3ccccc3)oc12                   4.3
1  Cc1cc(C(=O)NN2CCOCC2)nn1Cc1cc(Cl)cc2cc(C(C)C)oc12                     3
2  Cc1cc(C(=O)NN2CCOCC2)nn1Cc1cc(Cl)cc2cc(-c3ccccc3)oc12                   3.5

---

molecular target: Prostaglandin E2 receptor EP3 subtype (Homo sapiens, UniProt P43115); assay: Antagonist activity at human recombinant EP3 receptor expressed in CHO-K1 cells assessed as inhibition of PGE2-mediated intracellular calcium mobilization by FLIPR method
Sequence (P43115 whole entry): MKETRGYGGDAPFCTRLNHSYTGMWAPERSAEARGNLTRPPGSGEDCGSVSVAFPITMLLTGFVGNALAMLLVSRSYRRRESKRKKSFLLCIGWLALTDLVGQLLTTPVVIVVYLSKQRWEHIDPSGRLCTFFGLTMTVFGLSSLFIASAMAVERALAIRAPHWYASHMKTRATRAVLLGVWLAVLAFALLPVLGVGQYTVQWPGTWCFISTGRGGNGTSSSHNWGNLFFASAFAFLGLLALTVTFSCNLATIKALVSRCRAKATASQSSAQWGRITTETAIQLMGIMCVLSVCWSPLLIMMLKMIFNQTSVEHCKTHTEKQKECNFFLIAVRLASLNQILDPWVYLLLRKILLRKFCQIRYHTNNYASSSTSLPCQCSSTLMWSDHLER
property_label: Ki (µM)

>>> print(df.to_string())
                    structure_smiles_string                             tested_system  property_label  quantitative_readout
0  Cc1cc(C(=O)O)nn1Cc1cc(Cl)cc2cc(C(C)C)oc12  Prostaglandin E2 receptor EP3 subtype (Homo sapiens, UniProt P43115)              Ki                     1

---

Biological target: Prostaglandin E2 receptor EP1 subtype (Homo sapiens, UniProt P34995)
Sequence (P34995 whole entry): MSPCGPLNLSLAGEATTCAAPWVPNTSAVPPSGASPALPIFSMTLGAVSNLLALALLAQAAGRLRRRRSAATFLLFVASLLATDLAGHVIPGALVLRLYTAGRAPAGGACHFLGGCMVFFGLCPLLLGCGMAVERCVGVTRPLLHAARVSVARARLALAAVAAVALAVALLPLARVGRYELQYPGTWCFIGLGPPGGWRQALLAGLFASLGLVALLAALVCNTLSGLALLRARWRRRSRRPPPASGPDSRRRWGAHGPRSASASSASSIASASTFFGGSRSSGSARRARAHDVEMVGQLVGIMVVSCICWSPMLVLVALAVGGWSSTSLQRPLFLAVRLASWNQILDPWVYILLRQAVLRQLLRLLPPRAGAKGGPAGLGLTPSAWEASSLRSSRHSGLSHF
Experiment: Displacement of [3H]PGE2 from human prostanoid EP1 receptor expressed in CHO-K1 cells after 30 mins by topcount liquid scintillation counting
Type: cell-based
# Lookup of reported IC50 keyed by entry
property_label: IC50

>>> print(df.to_string())
                    structure_smiles_string     result
0  Cc1cc(C(=O)NN2CCCCC2)nn1Cc1cc(Cl)cc2cc(C(C)C)oc12     100 nM
1  Cc1cc(C(=O)O)nn1Cc1cc(Cl)cc2nc(C(C)C)cn12  > 1000 nM
2  Cc1cc(C(=O)NC2CCOCC2)nn1Cc1cc(Cl)cc2cc(C(C)C)oc12    63.1 nM
3  Cc1cc(C(=O)NC2CCNCC2)nn1Cc1cc(Cl)cc2cc(C(C)C)oc12     794 nM
4  CNCc1ccc(NC(=O)c2cc(C)n(Cc3cc(Cl)cc4cc(C(C)C)oc34)n2)cc1    63.1 nM
5  Cc1cc(C(=O)O)nn1Cc1cc(Cl)cn2cc(C(C)C)cc12     126 nM
6  Cc1cc(C(=O)O)nn1Cc1cc(Cl)cn2cc(C(C)C)nc12     501 nM
7  Cc1cc(C(=O)NN2CCOCC2)nn1Cc1cc(Cl)cc2cc(C(C)C)oc12    50.1 nM
8  Cc1cc(C(=O)O)nn1Cc1cc(Cl)cc2cc(C(C)C)oc12    5.01 nM
9  Cc1cc(-c2nc3ccccc3[nH]2)nn1Cc1cc(Cl)cc2cc(C(C)C)oc12    50.1 nM
